Target: human GPR84 receptor (Homo sapiens)
Construct: host or cells: HEK293, transient transfection
Assay: Gαi biosensor BRET assay in HEK293 cells (antagonism of ZQ-16)
Type: cell-based
Settings: HEK293, single concentration 10 μM (designated F)
measurement-type: inhibition at 10 µM

Recorded inhibition at 10 µM, per entry:
{"molecule": "Cc1cc(N2CCN(Cc3ccccn3)CC2)ccc1-c1cncn1CC1OCC(C)(C)CO1", "experimental-system": "human GPR84 receptor (Homo sapiens)", "inhibition at 10 µM": "≤ 25%"}
{"molecule": "COC(=O)C1CCCN1CC#Cc1ccc(-c2cn(CC3CCCCO3)nn2)c(C)c1 (centres unmarked)", "experimental-system": "human GPR84 receptor (Homo sapiens)", "inhibition at 10 µM": "50 to 75%"}
{"molecule": "Cc1cc(N2CC(C)(CO)C2)ccc1-c1cn(CC2OCC(C)(C)CO2)nn1", "experimental-system": "human GPR84 receptor (Homo sapiens)", "inhibition at 10 µM": "50 to 75%"}
{"molecule": "Cc1cc(C#CC2CC2)ccc1-c1cn(CC2CC(C)(C)CCO2)nn1 (centres unmarked)", "experimental-system": "human GPR84 receptor (Homo sapiens)", "inhibition at 10 µM": "≤ 25%"}

query: I have this molecule here, COCC#Cc1cnc(-c2cn(CC3OCC(C)(C)CO3)nn2)c(OC(C)C)c1 , and I need its recorded inhibition at 10 µM.
result: ≤ 25%

query: I have this molecule here, CC(C)Oc1cc(N2CC(C)(CO)C2)cnc1-c1cn(CC2OCC(C)(C)CO2)nn1 , and I need its recorded inhibition at 10 µM.
result: > 75%

query: I have this molecule here, CC(c1cccc(C#CC2CC2)c1)c1cn(CC2CCCCO2)nn1 (centres unmarked) , and I need its recorded inhibition at 10 µM.
result: > 75%

query: I have this molecule here, Cc1cc(N2CC(F)(F)C2)ccc1-c1cn(CC2CCCCO2)nn1 (centres unmarked) , and I need its recorded inhibition at 10 µM.
result: ≤ 25%

---

Molecular target: human GPR84 receptor (Homo sapiens)
Construct: host or cells: HEK293, transient transfection
Assay: Gαi biosensor BRET assay in HEK293 cells (antagonism of ZQ-16)
Type: cell-based
Conditions: HEK293, single concentration 10 μM (designated F)
Documented inhibition at 10 µM across a set of compounds

query: I have this compound here, CC(c1cccc(C#CCN2CC(C)(C)C2)c1)c1cn(CC2CCCCO2)nn1 (stereo not drawn) , and I need its recorded inhibition at 10 µM.
result: 25 to 50%

query: I have this compound here, Cc1cc(C#CC2CC2)ccc1-c1cn(CC2CC(F)(F)CCO2)nn1 (stereo not drawn) , and I need its recorded inhibition at 10 µM.
result: 25 to 50%

query: I have this compound here, Cc1cc(N2CC(C)(C)C2)cnc1-c1cn(CC2OCC(C)(C)CO2)nn1 , and I need its recorded inhibition at 10 µM.
result: > 75%

---

Biological target: human GPR84 receptor (Homo sapiens)
Construct: host or cells: HEK293, transient transfection
Assay: Gαi biosensor BRET assay in HEK293 cells (antagonism of ZQ-16)
Assay type: cell-based
Settings: HEK293, single concentration 10 μM (designated F)
measurement-type: inhibition at 10 µM

{"compound": "CCOC(c1cn(CC2CCCCO2)nn1)c1cc(C#CC2CC2)ccc1C (stereo not shown)", "result": "> 75%"}
{"compound": "Cc1cc(C#CC2CC2)ccc1-n1nc(CC2CCCCO2)oc1=O (stereo not shown)", "result": "25 to 50%"}
{"compound": "COCCn1cc(-c2ccc(C#CCNc3ccccc3)cc2C)nn1", "result": "≤ 25%"}
{"compound": "CNC1CCN(c2ccc(-c3cn(CC4CCCCO4)nn3)c(C)c2)CC1 (stereo not shown)", "result": "≤ 25%"}
{"compound": "Cc1cc(C#CCNC(=O)C(C)(C)C)ccc1-c1cn(CC2CCCCO2)nn1 (stereo not shown)", "result": "25 to 50%"}

query: I have this compound here, Cc1cc(C#CCNC(=O)OC(C)C)ccc1-c1cn(CC2CCCCO2)nn1 (stereo not shown) , and I need its recorded inhibition at 10 µM.
result: > 75%

query: I have this compound here, Cc1cc(OCC(C)(C)N)ccc1-c1cn(CC2CCCCO2)nn1 (stereo not shown) , and I need its recorded inhibition at 10 µM.
result: ≤ 25%

query: I have this compound here, CCc1cc(C#CCNc2ccccn2)cnc1-c1cn(C[C@H]2CCCCO2)nn1 , and I need its recorded inhibition at 10 µM.
result: > 75%

query: I have this compound here, Cc1cc(NC(=O)N2CCCC2)ccc1-c1cn(CC2CCCCO2)nn1 (stereo not shown) , and I need its recorded inhibition at 10 µM.
result: ≤ 25%

query: I have this compound here, Cc1cc(N2CC3(CN(c4cccnc4)C3)C2)ccc1-c1cn(CC2OCC(C)(C)CO2)nn1 , and I need its recorded inhibition at 10 µM.
result: > 75%

---

Target: human GPR84 receptor (Homo sapiens, UniProt Q9NQS5)
Construct: host or cells: HEK293, transient transfection
Sequence (Q9NQS5 whole entry): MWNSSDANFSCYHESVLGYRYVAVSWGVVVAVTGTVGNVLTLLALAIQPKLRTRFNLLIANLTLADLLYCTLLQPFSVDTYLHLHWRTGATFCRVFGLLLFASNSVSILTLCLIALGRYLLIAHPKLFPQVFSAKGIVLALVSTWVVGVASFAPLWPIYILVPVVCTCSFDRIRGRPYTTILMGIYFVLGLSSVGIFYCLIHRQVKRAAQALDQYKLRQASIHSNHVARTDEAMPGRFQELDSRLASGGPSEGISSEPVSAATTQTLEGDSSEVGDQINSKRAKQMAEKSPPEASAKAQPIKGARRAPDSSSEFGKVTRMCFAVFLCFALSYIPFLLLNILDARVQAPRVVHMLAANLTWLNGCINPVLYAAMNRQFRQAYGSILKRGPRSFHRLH
Test: Gαi biosensor BRET assay in HEK293 cells (antagonism of ZQ-16)
Type: cell-based
Conditions: HEK293, single concentration 10 μM (designated F)
Method: Background—The following assays can be used for determination of GPR84 activation in living HEK293 cells. […] Bioluminescence Resonance Energy Transfer (BRET) Measurement—HEK293 cells were transfected with GPR84-Rluc8 and rGFP-FYVE for the EEs trafficking biosensor or with GPR84, Gαi2-Rluc8, GFP10-Gγ2, and Gβ1 for the Gαi biosensor. […] The BRET signal was calculated as the ratio of light emitted by acceptor (GFP10, rGFP) over the light emitted by donor (Rluc8). […]
Documented inhibition at 10 µM across a set of compounds

query: I have this compound here, Cc1cc(N2CC3(CCCN3c3ccccn3)C2)ccc1-c1cn(CC2CCCCO2)nn1 (centres unmarked) , and I need its recorded inhibition at 10 µM.
result: 50 to 75%

query: I have this compound here, CCc1cc(C#CCN2CC(C)(CO)C2)cnc1-c1cn(CC2OCC(C)(C)CO2)nn1 , and I need its recorded inhibition at 10 µM.
result: 50 to 75%

query: I have this compound here, Cc1cc(N2CCC3(CC2)CN(Cc2ccccn2)C3)ccc1-c1cn(CC2CCCCO2)nn1 (centres unmarked) , and I need its recorded inhibition at 10 µM.
result: ≤ 25%

query: I have this compound here, C(#CC1CC1)c1csc(-c2cn(CC3CCCCO3)nn2)n1 (centres unmarked) , and I need its recorded inhibition at 10 µM.
result: ≤ 25%

query: I have this compound here, Cc1cc(C#CC2CC2)sc1-c1cn(CC2CCCCO2)nn1 (centres unmarked) , and I need its recorded inhibition at 10 µM.
result: 25 to 50%

---

Biological target: human GPR84 receptor (Homo sapiens)
Construct: host or cells: HEK293, transient transfection
Test: Gαi biosensor BRET assay in HEK293 cells (antagonism of ZQ-16)
Type: cell-based
Conditions: HEK293, single concentration 2 μM (designated A)
measurement-type: inhibition at 2 µM

{"compound": "CC(C)Oc1cc(N2CC(C)(CO)C2)ccc1-c1cn(CC2CC(C)(C)O2)nn1 (stereo not drawn)", "result": "> 75%"}
{"compound": "CC(C)Oc1cc(C#CCN2CC(C)(C)C2)cnc1-c1cn(CC2OCC(C)(C)CO2)nn1", "result": "> 75%"}
{"compound": "COC(c1cn(CC2CCCCO2)nn1)c1cc(C#CC2CC2)ccc1C (stereo not drawn)", "result": "> 75%"}

query: I have this compound here, CN(CC#Cc1cnc(-c2cn(CC3OCC(C)(C)CO3)nn2)c(OC2CC2)c1)C1CC1 , and I need its recorded inhibition at 2 µM.
result: > 75%

query: I have this compound here, CC1(C)COC(Cn2cc(-c3ncc(C#CCN4CC(C)(C)C4)cc3OCC(F)(F)F)nn2)OC1 , and I need its recorded inhibition at 2 µM.
result: > 75%

query: I have this compound here, COC1CCN(c2ccc(-c3cn(CC4CCCCO4)nn3)c(C)c2)C1 (stereo not drawn) , and I need its recorded inhibition at 2 µM.
result: ≤ 25%

---

System: neutrophils
Assay: Neutrophil migration assay (embelin as chemotactic agent, ATPlite readout)
Assay type: cell-based
Settings: Neutrophil; human neutrophils, embelin as chemotactic agent; read-out: Human Neutrophil migration inhibition IC50
pIC50: −log10 of the molar value.
Documented pIC50 across a set of compounds

Recorded pIC50, per entry:
{"compound": "Cc1cc(C#CCN2CCN(c3ccccc3)CC2)ccc1-c1cn(CC2CCCCO2)nn1 (centres unmarked)", "experimental-system": "neutrophils", "pIC50": "≥ 6.52"}
{"compound": "CN(C)c1cc(C#CCNCc2ccccc2)ccc1-c1cn(CC2CCCCO2)nn1 (centres unmarked)", "experimental-system": "neutrophils", "pIC50": "≥ 6.52"}
{"compound": "CCc1cc(C#CCO)ccc1-c1cn(CC2OCC(C)(C)CO2)nn1", "experimental-system": "neutrophils", "pIC50": "≥ 6.52"}

Could you now consider this next compound?
query: I have this compound here, CC(C)Oc1cc(C#CCN2CC(C)(C)C2)ccc1-c1cn(C[C@H]2CCCCO2)nn1 , and I need its recorded pIC50.
result: ≥ 6.52
